method.summary: In vivo biodistribution in normal Balb/c mice
Parameters: species or system mouse
cond: female, mouse, stomach, iv, total radioactivity; normal Balb/c mice, 2 h p.i., i.v. tail vein, mean ± SD, n = 4-6; read-out: Stomach uptake
Where a SMILES comes first, the peptide text is derived from it. [ ]: non-standard residue; d: D form. The star is where a group is joined. DOTA = O=C(O)CN1CCN(CC(=O)O)CCN(CC(=O)*)CCN(CC(=O)O)CC1; βAla = NCCC(=O)O

| molecule | tissue uptake at 2 h / %ID/g |
| --- | --- |
| CC[C@H](C)[C@H](NC(=O)[C@H](Cc1ccc(O)cc1)NC(=O)[C@@H](NC(=O)[C@H](CCCNC(=N)N)NC(=O)[C@H](CC(=O)O)NC(=O)CCNC(=O)[C@H](CCCCN)NC(=O)CN1CCN(CC(=O)O)CCN(CC(=O)O)CCN(CC(=O)O)CC1)C(C)C)C(=O)N[C@@H](Cc1c[nH]cn1)C(=O)N1CCC[C@H]1C(=O)N[C@@H](Cc1ccccc1)C(=O)N[C@@H](Cc1c[nH]c2ccccc12)C(=O)N[C@@H](CCCCN)C(=O)N[C@@H](Cc1ccc(O)cc1)C(N)=O [^68Ga-DOTA-AngII peptide, metal not drawn] ({DOTA}-K[βAla]DRVYIHPFWKY-NH2) | 0.81 |

FYI, the data here is from paper PMC10675340.
